From: ChEMBL document CHEMBL5316375

assayTarget: Voltage-gated inwardly rectifying potassium channel KCNH2 (Homo sapiens, UniProt Q12809)
Sequence (Q12809 whole entry): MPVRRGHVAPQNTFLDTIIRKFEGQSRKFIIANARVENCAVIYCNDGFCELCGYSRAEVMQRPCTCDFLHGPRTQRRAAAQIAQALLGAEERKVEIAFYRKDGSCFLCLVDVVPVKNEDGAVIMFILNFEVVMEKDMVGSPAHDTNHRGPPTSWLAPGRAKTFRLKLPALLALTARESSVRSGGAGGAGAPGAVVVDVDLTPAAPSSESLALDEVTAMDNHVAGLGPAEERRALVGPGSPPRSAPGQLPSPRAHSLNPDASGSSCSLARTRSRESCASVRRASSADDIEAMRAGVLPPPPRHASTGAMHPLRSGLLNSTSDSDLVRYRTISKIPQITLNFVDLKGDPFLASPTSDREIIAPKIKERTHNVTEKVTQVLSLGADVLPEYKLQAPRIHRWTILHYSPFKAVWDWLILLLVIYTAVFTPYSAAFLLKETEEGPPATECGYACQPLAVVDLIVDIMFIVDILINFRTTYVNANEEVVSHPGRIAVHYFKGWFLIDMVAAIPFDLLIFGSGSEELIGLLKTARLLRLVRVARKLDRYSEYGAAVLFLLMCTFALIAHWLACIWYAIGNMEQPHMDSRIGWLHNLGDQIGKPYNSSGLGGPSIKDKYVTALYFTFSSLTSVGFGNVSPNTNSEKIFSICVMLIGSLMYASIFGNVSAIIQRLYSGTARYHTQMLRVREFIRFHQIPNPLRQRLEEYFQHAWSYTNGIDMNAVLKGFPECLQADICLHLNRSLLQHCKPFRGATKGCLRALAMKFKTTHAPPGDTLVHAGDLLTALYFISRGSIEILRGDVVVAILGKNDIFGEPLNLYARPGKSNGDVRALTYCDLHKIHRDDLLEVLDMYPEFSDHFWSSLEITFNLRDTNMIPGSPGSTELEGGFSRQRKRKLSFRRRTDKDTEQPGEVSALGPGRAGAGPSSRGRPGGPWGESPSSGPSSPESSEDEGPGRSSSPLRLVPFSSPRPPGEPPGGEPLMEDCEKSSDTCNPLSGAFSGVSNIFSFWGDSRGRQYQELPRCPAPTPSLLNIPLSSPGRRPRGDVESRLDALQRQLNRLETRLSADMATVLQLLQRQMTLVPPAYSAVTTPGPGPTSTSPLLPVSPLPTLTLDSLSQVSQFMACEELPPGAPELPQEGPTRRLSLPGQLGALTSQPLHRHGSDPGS
pIC50: −log10 of the molar value.
measuredQuantity: pIC50

Looking up "C[C@H](NC(=O)c1c(Nc2cccc(C(F)(F)F)c2)c2ccccc2n1C)c1ccc(C(=O)O)cc1" , I found its pIC50 recorded as < 4.40

---

assayComment: Tmax at Sprague-Dawley rat at 10 mg/kg, po
Format: ADME, organism-based
reportedConditions: in vivo
measuredQuantity: Tmax (min)
Hi! Could you send only the number? It should be in min, unit omitted.

Looking up "C[C@H](NC(=O)c1c(Nc2cccc(C(F)(F)F)c2)c2ccccc2n1C)c1ccc(C(=O)O)cc1" , I found its Tmax recorded as 30

---

assayTarget: Prostaglandin E2 receptor EP3 subtype (Homo sapiens, UniProt P43115)
Sequence (P43115 whole entry): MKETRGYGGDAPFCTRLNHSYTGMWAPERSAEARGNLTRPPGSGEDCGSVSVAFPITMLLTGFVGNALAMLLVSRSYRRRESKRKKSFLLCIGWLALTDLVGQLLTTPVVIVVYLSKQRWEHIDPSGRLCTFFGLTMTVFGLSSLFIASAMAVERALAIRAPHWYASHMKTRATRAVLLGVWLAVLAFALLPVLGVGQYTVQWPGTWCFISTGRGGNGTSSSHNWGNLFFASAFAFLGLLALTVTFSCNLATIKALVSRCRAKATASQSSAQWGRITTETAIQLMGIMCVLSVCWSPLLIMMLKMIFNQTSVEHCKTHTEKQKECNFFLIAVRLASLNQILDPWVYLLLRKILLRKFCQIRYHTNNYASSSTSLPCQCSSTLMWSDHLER
measuredQuantity: IC50 (nM)
Hi! Could you send only the number? It should be in nM, unit omitted.

IC50 value, target or system Prostaglandin E2 receptor EP3 subtype (Homo sapiens, UniProt P43115), for "COc1ccc(Br)cc1S(=O)(=O)NC(=O)/C=C/c1ccccc1Cc1ccc2ccccc2c1" : 33

---

assayComment: Microsomal stability in rat liver microsomes assessed as half life at 1 uM measured for 60 mins by LC-MS/MS analysis
Type: ADME, Microsome
measuredQuantity: half-life at 1 µM

Looking up "C[C@H](NC(=O)c1c(Nc2cccc(C(F)(F)F)c2)c2ccccc2n1C)c1ccc(C(=O)O)cc1" , I found its half-life at 1 µM recorded as 4.33 h
